biological target: α1a-adrenoceptor (recombinant) (Homo sapiens); assay: Radioligand binding, cloned α1a-adrenoceptor ([3H]prazosin); settings: read-out: Affinity for recombinant α1a-adrenoceptor, cloned receptors (Ki)
Sequence (P35348 whole entry): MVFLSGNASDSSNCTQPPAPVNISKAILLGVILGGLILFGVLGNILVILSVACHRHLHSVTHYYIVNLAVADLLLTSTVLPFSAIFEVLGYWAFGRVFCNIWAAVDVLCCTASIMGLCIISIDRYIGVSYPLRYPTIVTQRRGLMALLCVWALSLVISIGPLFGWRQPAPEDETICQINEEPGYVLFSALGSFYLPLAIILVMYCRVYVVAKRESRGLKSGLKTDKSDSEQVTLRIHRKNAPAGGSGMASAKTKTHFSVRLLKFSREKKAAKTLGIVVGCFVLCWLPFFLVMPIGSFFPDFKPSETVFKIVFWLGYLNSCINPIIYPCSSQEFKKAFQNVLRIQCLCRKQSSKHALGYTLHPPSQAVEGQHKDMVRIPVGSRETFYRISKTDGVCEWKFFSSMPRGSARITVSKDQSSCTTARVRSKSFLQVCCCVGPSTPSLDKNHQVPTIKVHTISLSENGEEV
RECORDED_METRIC: Ki (nM)

- CNC(=O)c1oc2c(C(=O)NCCCN3CCN(c4cc(Cl)ccc4OC)CC3)cccc2c(=O)c1C: 0.57

I: Cc1c(C(N)=O)oc2c(C(=O)NCCCN3CCN(c4cc(Cl)ccc4OS(=O)(=O)C(F)(F)F)CC3)cccc2c1=O
II: Cc1c(C(N)=O)oc2c(C(=O)NCCCN3CCN(c4ccc(F)cc4OCC(F)(F)F)CC3)cccc2c1=O
Asked: # min-compare on Ki between I and II # respond with the chosen item's label
Given back: II
(II: 1.01 nM, I: 1.61 nM)
